System: Fibroblast
METHOD DESCRIPTION: Incucyte cell viability with human fibroblast; note: unitless GR value; below 1 slowed growth and below 0 cell loss
Assay type: toxicity, cell-based
EXPERIMENTAL CONDITIONS: 0 h, 10 µM, compound concentration 10 uM, replicate number 1
Output Yes for records whose Growth Rate is lower than -0.8, No for records at or above -0.8.

Worked examples follow.
O=C(CCSCc1ccco1)NNC(=O)N1Cc2ccccc2Oc2ccc(Cl)cc21
Yes
CCOC(=O)c1ncn2c1[C@@H]1CCCN1C(=O)c1cc(OC)ccc1-2
No
CC(=O)c1ccc2c(c1)/C(=C(/Nc1cccc(C#N)c1)c1ccc3c(c1)OCCO3)C(=O)N2
No

Let us examine a further case.
Quick check: does OCC1OC(n2cnc3cc(Cl)c(Cl)cc32)C(O)C1O (stereo not given) have Growth Rate under -0.8? Yes
